Recorded measurements of growth inhibition by drug plus 177Lu-lilotomab satetraxetan, one per entry
tested on: RIVA; assay: growth inhibition by drug plus 177Lu-lilotomab satetraxetan (1 - RLU/untreated control) (fraction); higher = stronger inhibition; conditions: 10 nM; time (day): 4; 177Lu-lilotomab satetraxetan 0.5 ug/ml
Structures can show the parent of a compound that is named as a salt.
Hey, just send me the number, nothing else.

Sample answers from the record:
[[record]]
compound = "COc1ccc(C2CC(c3ccccc3)=NN2c2ccc(S(N)(=O)=O)cc2)cc1 (stereo not drawn)"
system_name = "RIVA"
endpoint_result = 0.49

[[record]]
compound = "Cc1oc(S(=O)(=O)N2CCCCC2)cc1NC(=O)Nc1ccccc1"
system_name = "RIVA"
endpoint_result = 0.557

[[record]]
compound = "Nc1nc(Nc2ccc(S(N)(=O)=O)cc2)nn1C(=O)c1c(F)cccc1F"
system_name = "RIVA"
endpoint_result = 0.516

[[record]]
compound = "O=C1C(Cl)=C(NCCN2CCOCC2)C(=O)c2ncccc21"
system_name = "RIVA"
endpoint_result = 0.632


Which growth inhibition by drug plus 177Lu-lilotomab satetraxetan is reported for this compound? C[N+](C)([O-])CCNc1ccc(NCC[N+](C)(C)[O-])c2c1C(=O)c1c(O)ccc(O)c1C2=O [Banoxantrone dihydrochloride]
0.472

Which growth inhibition by drug plus 177Lu-lilotomab satetraxetan is reported for this compound? CN(C)CCOc1ccc(-c2nc(-c3ccncc3)c(-c3ccc4c(c3)CC/C4=N\O)[nH]2)cc1
0.494

Which growth inhibition by drug plus 177Lu-lilotomab satetraxetan is reported for this compound? O=C(O)CCCc1ccccc1 [4-Phenylbutyrate]
0.538

Which growth inhibition by drug plus 177Lu-lilotomab satetraxetan is reported for this compound? CC1(COc2ccc3c(c2)ncn3-c2ccc3cccc(N4CCC(N)CC4)c3n2)COC1
0.628
